# TARGET DESC: T1, human CD1d expressed on HEK-293 cells (human, UniProt P15813 20-335; P61769 21-119)
# T1 construct: also called HEK - CD1d
# METHOD SUMMARY: flow cytometry, HEK-293 cells, 0.316 µg/ml antibody
Reported Fluorescence Intensity Geomean (normalized to background) values are given for each entry in this list.
Respond with the bare value in fold over background.

[in] Need Fluorescence Intensity Geomean (normalized to background) of 77A (VR11851) (antibody, V domains shown, also called OX77a; antibody 77a) VH: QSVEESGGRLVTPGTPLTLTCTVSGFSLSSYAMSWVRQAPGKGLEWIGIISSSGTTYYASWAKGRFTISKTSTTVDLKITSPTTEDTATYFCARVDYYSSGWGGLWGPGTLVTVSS VL: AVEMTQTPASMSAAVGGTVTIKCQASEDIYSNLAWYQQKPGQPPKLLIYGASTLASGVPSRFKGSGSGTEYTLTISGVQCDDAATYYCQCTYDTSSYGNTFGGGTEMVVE , thanks.
[out] 1

[in] Consider next the binder 116 (VR12117) (antibody, V domains shown, also called OX116) VH: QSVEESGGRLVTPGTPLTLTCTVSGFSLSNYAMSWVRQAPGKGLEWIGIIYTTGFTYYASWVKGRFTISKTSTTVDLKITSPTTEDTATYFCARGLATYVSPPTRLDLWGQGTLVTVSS VL: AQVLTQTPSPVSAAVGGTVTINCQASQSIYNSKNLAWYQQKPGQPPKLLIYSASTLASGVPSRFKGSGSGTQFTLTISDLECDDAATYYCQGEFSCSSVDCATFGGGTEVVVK in the same way.
[out] 1

[in] Consider next the binder 110 (VR12112) (antibody, V domains shown, also called OX110; antibody 110) VH: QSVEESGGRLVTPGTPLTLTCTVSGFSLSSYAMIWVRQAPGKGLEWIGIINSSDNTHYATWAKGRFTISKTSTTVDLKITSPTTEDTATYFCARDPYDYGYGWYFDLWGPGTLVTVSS VL: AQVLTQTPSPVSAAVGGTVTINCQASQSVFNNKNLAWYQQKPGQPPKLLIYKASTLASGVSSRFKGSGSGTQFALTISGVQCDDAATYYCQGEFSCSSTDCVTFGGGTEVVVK in the same way.
[out] 1

Consider the record given below.
[in] Need Fluorescence Intensity Geomean (normalized to background) of 111 (VR12113) (antibody, V domains shown, also called OX111) VH: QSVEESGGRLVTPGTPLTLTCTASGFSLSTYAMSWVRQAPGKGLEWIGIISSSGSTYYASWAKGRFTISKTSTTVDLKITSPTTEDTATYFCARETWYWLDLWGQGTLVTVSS VL: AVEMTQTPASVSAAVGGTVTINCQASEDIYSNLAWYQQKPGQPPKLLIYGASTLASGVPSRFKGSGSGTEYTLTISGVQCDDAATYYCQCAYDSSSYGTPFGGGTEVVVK , thanks.
[out] 0.9
